Tested on: A549 lung adenocarcinoma cells
Experiment: Steady-state glucose consumption and lactate production in A549 cells
Assay type: cell-based, human
Conditions: 25 μM, 1 mM glucose, 8 h
property-measured: Glucose consumption and lactate production in A549 cells

compound: Cc1nc(NCC(=O)Nc2ccccc2Br)c2c(-c3cccs3)csc2n1 [WBC-15C]
experimental-target: A549 lung adenocarcinoma cells
reported: inhibited

compound: Cc1nc(SCC(=O)c2ccc3c(c2)NC(=O)CO3)c2c(-c3cccs3)csc2n1 [WBC-11C]
experimental-target: A549 lung adenocarcinoma cells
reported: inhibited

compound: Cc1nc(NCC(=O)NCc2ccco2)c2c(-c3ccccc3)csc2n1
experimental-target: A549 lung adenocarcinoma cells
reported: inhibited
